System: CW-2;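 note: growth inhibition of CW-2 cells, read out by a cell viability assay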
Assay: cells
Assay type: functional, cell-based, Homo sapiens
Settings: Homo sapiens, CW-2
Description: SANGER: Inhibition of human CW-2 cell growth in a cell viability assay.
pIC50: −log10 of the molar value.
In this section we review reported pIC50 values for a set of molecules.
MEASURE NAME: pIC50

O=C(NCCCNc1nc(Nc2cccc(NC(=O)N3CCCC3)c2)ncc1I)c1cccs1    < 5.30
CN(C)CCOc1ccc(-c2nc(-c3ccncc3)c(-c3ccc4c(c3)CC/C4=N\O)[nH]2)cc1    < 5.30
CC(C)C[C@H](NC(=O)[C@H](Cc1ccccc1)NC(=O)c1cnccn1)B(O)O    8.49
OC[C@H](Cc1ccccc1)Nc1nc(Oc2ccc3c(c2)CCC3)nc2c1ncn2Cc1ccc(-c2ccccc2)cc1    < 4.99
C/C(=C\c1csc(C)n1)[C@@H]1C[C@@H]2O[C@]2(C)CCC[C@H](C)[C@H](O)[C@@H](C)C(=O)C(C)(C)[C@@H](O)CC(=O)O1    < 7.49
O=C1NC(=O)c2c1c(-c1ccccc1Cl)cc1[nH]c3ccc(O)cc3c21    < 5.70
NC1(c2ccc(-c3nc4ccn5c(=O)[nH]nc5c4cc3-c3ccccc3)cc2)CCC1    < 5.40
C=CC(=O)N1CCCC(Nc2nc(Nc3ccc(N(C)C(=O)CC)cc3)nc3[nH]cnc23)C1 (centres undefined)    < 4.99
Cc1ccc(C(=O)Nc2ccc(CN3CCN(C)CC3)c(C(F)(F)F)c2)cc1C#Cc1cnc2cccnn12    < 6.29

###

Test system: DBTRG-05MG;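 note: cell viability assay measuring growth inhibition of human DBTRG-05MG cells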
Experiment: cells
Format: functional, cell-based
Conditions: Homo sapiens
Description: SANGER: Inhibition of human DBTRG-05MG cell growth in a cell viability assay.
In this section we review reported IC50 values for a set of molecules.
MEASURE NAME: IC50

O=C1NC(=O)c2c1c(-c1ccccc1Cl)cc1[nH]c3ccc(O)cc3c21    > 2 µM
OC[C@H](Cc1ccccc1)Nc1nc(Oc2ccc3c(c2)CCC3)nc2c1ncn2Cc1ccc(-c2ccccc2)cc1    > 10.2 µM
CO[C@@H]1[C@H](N(C)C(=O)c2ccccc2)C[C@H]2O[C@]1(C)n1c3ccccc3c3c4c(c5c6ccccc6n2c5c31)C(=O)NC4 [MIDOSTAURIN]    > 0.512 µM
NC1(c2ccc(-c3nc4ccn5c(=O)[nH]nc5c4cc3-c3ccccc3)cc2)CCC1 [MK-2206]    > 4 µM
Cc1ccc(-n2nc(C(C)(C)C)cc2NC(=O)Nc2ccc(OCCN3CCOCC3)c3ccccc23)cc1 [DORAMAPIMOD]    > 10 µM
COc1ccc(-c2cc3nccn3c(Nc3ncccc3C(N)=O)n2)cc1OC    > 8 µM

###

System: CAL-120;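 note: cell growth inhibition, read out as cell viability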
Assay: cells
Assay type: functional, cell-based
Details: Homo sapiens
Description: SANGER: Inhibition of human CAL-120 cell growth in a cell viability assay.
MEASURE NAME: IC50

NC(=O)Nc1cc(-c2cccc(F)c2)sc1C(=O)N[C@H]1CCCNC1    > 2 µM
O=C(NCCCNc1nc(Nc2cccc(NC(=O)N3CCCC3)c2)ncc1I)c1cccs1    3.89 µM
CS(=O)(=O)N1CCN(Cc2cc3nc(-c4cccc5[nH]ncc45)nc(N4CCOCC4)c3s2)CC1    > 4 µM
COC(=O)[C@H](CCSC)NC(=O)c1ccc(NC[C@@H](N)CS)cc1-c1ccccc1    > 1.02 µM
Cc1ccc(-n2nc(C(C)(C)C)cc2NC(=O)Nc2ccc(OCCN3CCOCC3)c3ccccc23)cc1    > 10 µM
CC1=C(/C=C/C(C)=C/C=C/C(C)=C/C(=O)O)C(C)(C)CCC1    > 10 µM

###

System: HPAF-II;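 note: growth inhibition of HPAF-II cells, read out with a cell viability assay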
Assay: cells
Type: functional, cell-based
Details: Homo sapiens
Description: SANGER: Inhibition of human HPAF-II cell growth in a cell viability assay.
pIC50: −log10 of the molar value.
In this section we review reported pIC50 values for a set of compounds.
MEASURE NAME: pIC50

COC(=O)[C@H](CCSC)NC(=O)c1ccc(NC[C@@H](N)CS)cc1-c1ccccc1    < 5.99
NC(=O)Nc1cc(-c2cccc(F)c2)sc1C(=O)N[C@H]1CCCNC1    6.01
CN(C)CCOc1ccc(-c2nc(-c3ccncc3)c(-c3ccc4c(c3)CC/C4=N\O)[nH]2)cc1    < 5.30
O=S(=O)(O)c1ccc2cc(/N=N/c3cc(S(=O)(=O)O)c4cccnc4c3O)ccc2c1    < 4.80

###

In this section we review reported IC50 values for a set of molecules.
Test system: HCE-T;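 note: cell viability assay read-out, reporting inhibition of HCE-T cell growth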
Experiment: cells
Format: functional, cell-based, Homo sapiens
Details: Homo sapiens, HCE-T
Description: SANGER: Inhibition of human HCE-T cell growth in a cell viability assay.
MEASURE NAME: IC50

COc1cc(N2CCC(N3CCN(C)CC3)CC2)ccc1Nc1ncc(Cl)c(Nc2ccccc2S(=O)(=O)C(C)C)n1 [TAE-684]    1.09 µM
NC1(c2ccc(-c3nc4ccn5c(=O)[nH]nc5c4cc3-c3ccccc3)cc2)CCC1 [MK-2206]    > 4 µM
Cc1ccc(C(=O)Nc2ccc(CN3CCN(C)CC3)c(C(F)(F)F)c2)cc1C#Cc1cnc2cccnn12 [PONATINIB]    > 0.512 µM
COC(=O)[C@H](CCSC)NC(=O)c1ccc(NC[C@@H](N)CS)cc1-c1ccccc1    > 1.02 µM
CS(=O)(=O)N1CCN(Cc2cc3nc(-c4cccc5[nH]ncc45)nc(N4CCOCC4)c3s2)CC1 [PICTILISIB]    > 4 µM
COc1ccc(N(C(=O)Oc2c(C)cccc2C)c2ccnc(Nc3ccc(N4CCN(C)CC4)cc3)n2)c(OC)c1    > 5.12 µM
Cc1ccc(-n2nc(C(C)(C)C)cc2NC(=O)Nc2ccc(OCCN3CCOCC3)c3ccccc23)cc1 [DORAMAPIMOD]    > 10 µM
C=CC(=O)N1CCCC(Nc2nc(Nc3ccc(N(C)C(=O)CC)cc3)nc3[nH]cnc23)C1 (centres undefined)    > 10.2 µM
Cc1ccc(NC(=O)c2ccc(CN3CCN(C)CC3)cc2)cc1Nc1nccc(-c2cccnc2)n1 [IMATINIB]    > 2 µM

###

Tested on: SCC-4;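 note: growth inhibition of human SCC-4 cells, read out as cell viability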
Test: cells
Assay type: functional, cell-based
Settings: Homo sapiens
Description: SANGER: Inhibition of human SCC-4 cell growth in a cell viability assay.
MEASURE NAME: IC50

CO[C@@H]1[C@H](N(C)C(=O)c2ccccc2)C[C@H]2O[C@]1(C)n1c3ccccc3c3c4c(c5c6ccccc6n2c5c31)C(=O)NC4    0.24 µM
COC(=O)[C@H](CCSC)NC(=O)c1ccc(NC[C@@H](N)CS)cc1-c1ccccc1    > 1.02 µM
O=C1NC(=O)c2c1c(-c1ccccc1Cl)cc1[nH]c3ccc(O)cc3c21    > 2 µM
NC(=O)Nc1cc(-c2cccc(F)c2)sc1C(=O)N[C@H]1CCCNC1    1.02 µM
C/C(=C\c1csc(C)n1)[C@@H]1C[C@@H]2O[C@]2(C)CCC[C@H](C)[C@H](O)[C@@H](C)C(=O)C(C)(C)[C@@H](O)CC(=O)O1    0.000877 µM
COc1ccc(-c2cc3nccn3c(Nc3ncccc3C(N)=O)n2)cc1OC    > 8 µM
O=C(NCCCNc1nc(Nc2cccc(NC(=O)N3CCCC3)c2)ncc1I)c1cccs1    > 5 µM

###

Test system: VA-ES-BJ
Assay: cells
Assay type: functional, cell-based, Homo sapiens
Conditions: Homo sapiens, VA-ES-BJ
Description: SANGER: Inhibition of human VA-ES-BJ cell growth in a cell viability assay.
MEASURE NAME: IC50

Cc1ccc(-n2nc(C(C)(C)C)cc2NC(=O)Nc2ccc(OCCN3CCOCC3)c3ccccc23)cc1    > 10 µM
CC1=C(/C=C/C(C)=C/C=C/C(C)=C/C(=O)O)C(C)(C)CCC1    > 10 µM
Cc1ccc(NC(=O)c2ccc(CN3CCN(C)CC3)cc2)cc1Nc1nccc(-c2cccnc2)n1    > 2 µM

###

Tested on: EW-22;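 note: growth inhibition of the EW-22 cell line, measured with a cell viability readout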
Assay: cells
Type: functional, cell-based
Conditions: Homo sapiens
Description: SANGER: Inhibition of human EW-22 cell growth in a cell viability assay.
In this section we review reported IC50 values for a set of molecules.
MEASURE NAME: IC50

NC(=O)Nc1cc(-c2cccc(F)c2)sc1C(=O)N[C@H]1CCCNC1    584 nM
CN(C)CCOc1ccc(-c2nc(-c3ccncc3)c(-c3ccc4c(c3)CC/C4=N\O)[nH]2)cc1    > 5000 nM
NC1(c2ccc(-c3nc4ccn5c(=O)[nH]nc5c4cc3-c3ccccc3)cc2)CCC1    > 4000 nM
C[C@@H](Oc1cc(-c2cnn(C3CCNCC3)c2)cnc1N)c1c(Cl)ccc(F)c1Cl    > 2000 nM
CC1=C(/C=C/C(C)=C/C=C/C(C)=C/C(=O)O)C(C)(C)CCC1    > 10000 nM
COc1cc(N2CCC(N3CCN(C)CC3)CC2)ccc1Nc1ncc(Cl)c(Nc2ccccc2S(=O)(=O)C(C)C)n1    > 2000 nM
CN(NC(=O)CC(=O)NN(C)C(=S)c1ccccc1)C(=S)c1ccccc1    74.7 nM

###

System: D-502MG
Assay: cells
Format: functional, cell-based, Homo sapiens
Conditions: Homo sapiens, D-502MG
Description: SANGER: Inhibition of human D-502MG cell growth in a cell viability assay.
pIC50: −log10 of the molar value.
MEASURE NAME: pIC50

C[C@@H](Oc1cc(-c2cnn(C3CCNCC3)c2)cnc1N)c1c(Cl)ccc(F)c1Cl [CRIZOTINIB]    < 5.70
NC(=O)c1cccc(-c2cc(Nc3ccc(OC(F)(F)F)cc3)ncn2)c1    < 5.89
OC[C@H](Cc1ccccc1)Nc1nc(Oc2ccc3c(c2)CCC3)nc2c1ncn2Cc1ccc(-c2ccccc2)cc1    < 4.99
Cc1cc(N2CCOCC2)cc2[nH]c(-c3c(NC[C@@H](O)c4cccc(Cl)c4)cc[nH]c3=O)nc12    < 5.29
